# system: Adenosine receptor A1 (Rattus norvegicus)
# Sequence (P25099 whole entry): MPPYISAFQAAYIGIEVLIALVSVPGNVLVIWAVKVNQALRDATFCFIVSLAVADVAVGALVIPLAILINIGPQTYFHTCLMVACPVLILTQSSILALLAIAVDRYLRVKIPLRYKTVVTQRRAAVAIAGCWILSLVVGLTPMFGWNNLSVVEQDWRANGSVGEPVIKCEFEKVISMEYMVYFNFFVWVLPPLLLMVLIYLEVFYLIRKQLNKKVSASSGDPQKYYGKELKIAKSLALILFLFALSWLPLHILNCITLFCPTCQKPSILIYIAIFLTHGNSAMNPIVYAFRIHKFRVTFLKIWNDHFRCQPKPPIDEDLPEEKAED
# method: Inhibition of binding towards adenosine A1 receptor using [3H]N-cyclohexyladenosine ([3H]CHA) in rat whole brain membranes.
value type: pIC50
# pIC50: negative log10 of molar concentration; output just the value

Response field pIC50 (Adenosine receptor A1 (Rattus norvegicus)) for item "CS(=O)(=O)O.Nc1nc2ccc(Cl)cc2c2nc(-c3cccs3)nn12" : 6.49

Response field pIC50 (Adenosine receptor A1 (Rattus norvegicus)) for item "CS(=O)(=O)O.Cn1c(=N)n2nc(-c3ccco3)nc2c2ccccc21" : 5.91

====

Answer each item with its documented Ratio.
# system: Adenosine receptor A1 (Rattus norvegicus)
# method: Ratio of Ki at A2 to Ki at A1 receptors
Answer with a number only.

Given item "Nc1nc2ccc(O)cc2c2nc(-c3ccco3)nn12" , the value recorded as its Ratio is 0.58

Given item "Nc1nc2ccccc2c2nc(-c3ccco3)nn12" , the value recorded as its Ratio is 0.71

Given item "CS(=O)(=O)O.Nc1nc2ccc(Cl)cc2c2nc(-c3cccs3)nn12" , the value recorded as its Ratio is 0.36

Given item "CS(=O)(=O)O.Cn1c(=N)n2nc(-c3ccco3)nc2c2ccccc21" , the value recorded as its Ratio is 2.4

Given item CCC(C)Nc1nc2ccc(Cl)cc2c2nc(-c3ccco3)nn12.CS(=O)(=O)O (stereo not given) , the value recorded as its Ratio is 2.6

====

Answer each item with its documented IC50.

Response field IC50 (Adenosine A2 receptor (Rattus norvegicus, UniProt P29276+P30543)) for item "Oc1nc2ccc(Cl)cc2c2nc(-c3ccco3)nn12" : > 10 µM

Response field IC50 (Adenosine A2 receptor (Rattus norvegicus, UniProt P29276+P30543)) for item "CC(C)(C)Nc1nc2ccc(Cl)cc2c2nc(-c3ccco3)nn12" : > 10 µM

Response field IC50 (Adenosine A2 receptor (Rattus norvegicus, UniProt P29276+P30543)) for item "CN(C)c1nc2ccc(Cl)cc2c2nc(-c3ccco3)nn12" : > 10 µM

Measured values drawn from ChEMBL document CHEMBL1124100 for this set.
